- Assay method text: Inhibition of HIV1 RNase H by FRET assay
- Parameters: species or system Human immunodeficiency virus 1
Assay endpoint: pIC50
The scale used: pIC50 is minus the common logarithm of the concentration in molar units.

Form field pIC50, entry O=C(OC[C@H](OC(=O)c1cc(O)c(O)c(O)c1)C(O)(COC(=O)c1cc(O)c(O)c(O)c1)COC(=O)c1cc(O)c(O)c(O)c1)c1cc(O)c(O)c(O)c1 : 6.62
